System: HIV-1NL4-3
Experimental details: Anti-HIV assay in MT-4 cells, consensus p24 assay
Assay type: cell-based
Test parameters: Table 2, read-out: Anti-HIV-1 activity in different cells (EC90, μM) MT-4
Measure: EC90 (µM)
The reply should contain only the number, in µM.

[[record]]
compound_structure_string = "O=C(Nc1nc(=O)n([C@H]2C=C[C@@H](CO)O2)cc1F)c1cccc(Cl)c1"
measurement_unit = "µM"
assay_value = 3.4

[[record]]
compound_structure_string = "CCCC(=O)Nc1nc(=O)n([C@H]2C=C[C@@H](CO)O2)cc1F"
measurement_unit = "µM"
assay_value = 3.1


Note: attention shifts to another entry.
Prompt line: Fill in: EC90 of O=C(Nc1nc(=O)n([C@H]2C=C[C@@H](CO)O2)cc1F)c1cccc(Br)c1 is ___
Response line: 2.2

The reported numbers originate from patent US7105527B2.
